study system: T1, recombinant human galectin-10, TEV-cleaved (human, UniProt Q05315 1-142)
T1 sequence: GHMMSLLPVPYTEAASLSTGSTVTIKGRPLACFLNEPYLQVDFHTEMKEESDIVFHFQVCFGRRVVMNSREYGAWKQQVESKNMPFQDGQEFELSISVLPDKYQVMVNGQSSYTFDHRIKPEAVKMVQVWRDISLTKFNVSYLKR
method: cell-based or functional assay
reported property: 90% dissolution (min) of CLCs, antibody 50 uM

binder	reported measurement
7B07 mouse IgG1 (antibody, V domains shown, VH and VL cloned in frame with mouse IgG1 constant domains; also called 7B07 mIgG1) VH: QVQLVESGGGLVQPGGSLRLSCAASGFTFRSYDMSWVRQAPGKGPEWVSAIKNGGGITYYADSVKGRFTISRDNAKNTLYLQMNSLKPEDTAVYYCATTHGIGTLGFGSWGQGTQVTVSS VL: SYELTQSASVSVALTQTAKITCDGNNIGSKSAQWYQQKPGQAPALVIYADEYRPEGIPERFSGSNSGNTATLIISGAQAEDEADYYCQVWDGSAAVFGRGTHLTVL	44.4
10B02 mouse IgG1 (antibody, V domains shown, VH and VL cloned in frame with mouse IgG1 constant domains; also called 10B02 mIgG1) VH: QVQLVESGGGLVQPGGSLRVSCAASGFTFSYHYMNWVRQAPGKGLEWVSGISAGGGRTYYADSVKGRFTISRDNAKNTLYLQMNSLNAEDTALYYCARVHGITNDYWGQGTQVTVSS VL: QSALTQPPSVSGSPGKTVTISCAGTSSDVGYGNYVSWYQQLPGMAPKLLIYEVNKRASGITDRFSGSKSGNTAFLTISGLQSEDEADYYCASYRNSNNWVFGGGTHLTVL	47.4
10A06 mouse IgG1 (antibody, V domains shown, VH and VL cloned in frame with mouse IgG1 constant domains; also called 10A06 mIgG1) VH: QVQLVESGGGLVQPGGSLRLSCAASGFTFGNYDMSWVRQAPGKGPEWVSDINSGGGSTYYADSVKGRFTISRDNAKNSLLLQMNSLKPEDTAVYYCATGYTGYYYWGQGTQVTVSS VL: QTVVTQEPSLSVSPGGTVTLTCGLSSGSVTSSNYPAWYQQTPGQAPRALIYSINSRHSGVPDRFSGSISGNKAALTITGAQAEDEADYYCTLYMGTGSNNVVFGGGTHLTVL	86.6
11F12 mouse IgG1 (antibody, V domains shown, VH and VL cloned in frame with mouse IgG1 constant domains; also called 11F12 mIgG1) VH: QVQLQESGGGLVQPGGSLRLSCAASGFTFSTNYMNWVRQAPGKGLEWVSGITSGGGRTYYADSVKGRFTISRDNAKNTLYLQMNSLKPEDTALYYCARTDHAWLDAWGQGTLVTVSS VL: HSAVTQPPSVSGTLGKTVTISCAGTSSDVGYGNYVSWYQHLPGTAPKLLIYAVSTRASGVPDRFSGSKSGNTASLTISGLQSEDEGDYYCASYSVRNNVVFGGGTRLTVL	42.6
1D11 mouse IgG1 (antibody, V domains shown, Llama VH and VL on mouse IgG1 heavy chain constant domains (CH1-CH2-CH3) and mouse lambda light chain constant domain; also called 1D011; 1D11 mIgG1) VH: QVQLVESGGGLVQPGGSLRLSCAASGFTFDDYAMSWVRQAPGKGLEWVSGISWNGGSTYYAESMKGRFTISRDNAKNTLYLQMNSLKSEDTAVYYCAKDRNLGYRLGYPYDYWGQGTQVTVSS VL: QSVLTQPPSVSGSPGETVTISCAGTSSDVGYGNYVSWYQQLPGMAPRLLIYEVNKRASGITDRFSGSKSGNTASLTISGLQSEDEGDYYCASYRSSNNAVFGGGTHLTVL	56.7
